Can you tell me Myelo for the items I'm about to list?
- Tested on: FDC-P1, normal mouse myelogeous stem cells
- Condition Context: 24 h
No unit in the answer, only the number.

Entry COc1c(C)cc2c(c1O)[C@@H]1C3[C@@H]4SC[C@]5(NC(C)Cc6c5[nH]c5ccc(F)cc65)C(=O)COC[C@@H](c5c6c(c(C)c(OC(C)=O)c54)OCO6)N3[C@@H](O)[C@H](C2)N1C (stereo partly drawn) [Compound 41] ; Myelo = 1.39E−07

Reported Myelo ( COc1c(C)cc2c(c1O)[C@@H]1C3[C@@H]4SC[C@]5(NC(C)Cc6c5[nH]c5ccccc65)C(=O)COC[C@@H](c5c6c(c(C)c(OC(C)=O)c54)OCO6)N3[C@@H](O)[C@H](C2)N1C (stereo partly drawn) [Compound 44] ) = 1.21E−07

For this compound ( COc1c(C)cc2c(c1O)[C@@H]1C3[C@@H]4SC[C@]5(NC(C)Cc6c5[nH]c5ccccc65)C(=O)COC[C@@H](c5c6c(c(C)c(OC(C)=O)c54)OCO6)N3[C@@H](O)[C@H](C2)N1C (stereo partly drawn) [Compound 43] ), measured Myelo is 6.23E−08

# Myelo of COc1c(C)cc2c(c1O)[C@@H]1C3[C@@H]4SC[C@]5(NCCc6c5[nH]c5ccc(F)cc65)C(=O)COC[C@@H](c5c6c(c(C)c(OC(C)=O)c54)OCO6)N3[C@@H](O)[C@H](C2)N1C (stereo partly drawn) = 4.08E−08

// sample COc1c(C)cc2c(c1O)[C@@H]1C3[C@@H]4SC[C@]5(NC(C)Cc6c5[nH]c5ccc(O)cc65)C(=O)COC[C@@H](c5c6c(c(C)c(OC(C)=O)c54)OCO6)N3[C@@H](O)[C@H](C2)N1C (stereo partly drawn) [Compound 37] , its Myelo was 4.59E−09

// sample COc1c(C)cc2c(c1OC(=O)OC(C)(C)C)[C@@H]1C3[C@@H]4SC[C@]5(NCCc6c5[nH]c5ccccc65)C(=O)COC[C@@H](c5c6c(c(C)c(OC(C)=O)c54)OCO6)N3[C@@H](O)[C@H](C2)N1C (stereo partly drawn) , its Myelo was 1.17E−07

COc1c(C)cc2c(c1O)[C@@H]1C3[C@@H]4SC[C@]5(NCCc6c5[nH]c5ccc(C)cc65)C(=O)COC[C@@H](c5c6c(c(C)c(OC(C)=O)c54)OCO6)N3[C@@H](O)[C@H](C2)N1C (stereo partly drawn) has a reported Myelo of 7.58E−09

Measured Myelo of COc1c(C)cc2c(c1O)[C@@H]1C3[C@@H]4SC[C@]5(C(=O)COC[C@@H](c6c7c(c(C)c(OC(C)=O)c64)OCO7)N3[C@@H](O)[C@H](C2)N1C)c1[nH]c2ccccc2c1CCN5C (stereo partly drawn) [Compound 40] : 4.08E−08

Memo: COc1ccc2[nH]c3c(c2c1)CCN[C@]31CS[C@@H]2c3c(OC(C)=O)c(C)c4c(c3[C@H](COCC1=O)N1C2[C@H]2c3c(cc(C)c(OC)c3O)C[C@@H]([C@@H]1O)N2C)OCO4 (stereo partly drawn) , reported Myelo: 1.75E−08

====

- System: PANC-1
- Protocol Description: cells
- Format: cell-based
- Condition Context: read-out: LC50; PANC-1, 48 hours exposure, SRB
- Text: The finality of these assays is to interrupt the growth of a “in vitro” tumor cell culture by means of a continued exhibition of the cells to the sample to be testing. A colorimetric type of assay, using sulphorhodamine B (SRB) reaction has been adapted for a quantitative measurement of cell growth and viability [following the technique described by Philip Skehan, et al. (1990), New colorimetric cytotoxicity assay for anticancer drug screening, J. Natl. Cancer Inst., 82:1107-1112] […]
Value Type: CC50 (µM)
Write the value in µM as a bare number.

In plain terms, COc1c(C)cc2c(c1O)[C@@H]1C3[C@@H]4SC[C@]5(NC(C)Cc6c5[nH]c5ccc(F)cc65)C(=O)COC[C@@H](c5c6c(c(C)c(OC(C)=O)c54)OCO6)N3[C@@H](O)[C@H](C2)N1C (stereo partly drawn) [Compound 42] has a documented CC50 of 12.7

Entry COc1c(C)cc2c(c1O)[C@@H]1C3[C@@H]4SC[C@]5(NC(C)Cc6c5[nH]c5ccc(O)cc65)C(=O)COC[C@@H](c5c6c(c(C)c(OC(C)=O)c54)OCO6)N3[C@@H](O)[C@H](C2)N1C (stereo partly drawn) [Compound 37] ; CC50 = 3.02

Given item COc1c(C)cc2c(c1O)[C@@H]1C3[C@@H]4SC[C@]5(C(=O)COC[C@@H](c6c7c(c(C)c(OC(C)=O)c64)OCO7)N3[C@@H](O)[C@H](C2)N1C)c1[nH]c2ccccc2c1CCN5C (stereo partly drawn) [Compound 40] , the value recorded as its CC50 is 0.128
